Documented glycan array binding signal (z-score) across a set of binders
# EXPERIMENTAL_TARGET: GlcNAc(a1-4)Gal(b1-4)GlcNAc(b1-3)Gal(b1-4)GlcNAc
# PROTOCOL_DESCRIPTION: glycan array binding signal (z-score within array); higher = stronger binding
# CONDITIONS_USED: glycan notation: IUPAC condensed, linker removed
Shown is part of a subset that was picked to be rich in the strongest signals.

Ask | Could you tell me which glycan array binding signal (z-score) is on file for Epa22 (Candida glabrata) (protein) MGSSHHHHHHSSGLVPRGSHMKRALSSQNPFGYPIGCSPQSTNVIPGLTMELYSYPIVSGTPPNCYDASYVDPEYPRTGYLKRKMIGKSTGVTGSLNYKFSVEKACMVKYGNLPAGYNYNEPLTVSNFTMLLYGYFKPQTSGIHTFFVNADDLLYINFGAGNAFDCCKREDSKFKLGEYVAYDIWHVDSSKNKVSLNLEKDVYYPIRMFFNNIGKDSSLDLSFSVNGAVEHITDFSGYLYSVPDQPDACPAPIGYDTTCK ?
Reply | -0.413

Ask | Could you tell me which glycan array binding signal (z-score) is on file for FedF (Escherichia coli), Q47212 (protein) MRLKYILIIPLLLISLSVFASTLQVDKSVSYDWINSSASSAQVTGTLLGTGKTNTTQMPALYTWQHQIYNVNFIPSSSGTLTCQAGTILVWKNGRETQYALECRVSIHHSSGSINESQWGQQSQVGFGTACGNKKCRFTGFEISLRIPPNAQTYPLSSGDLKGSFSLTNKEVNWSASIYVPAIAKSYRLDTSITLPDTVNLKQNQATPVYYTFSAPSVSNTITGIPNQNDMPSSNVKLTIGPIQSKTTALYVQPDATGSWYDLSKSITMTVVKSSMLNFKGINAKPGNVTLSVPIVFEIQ ?
Reply | 0.918

Ask | Could you tell me which glycan array binding signal (z-score) is on file for RBMC2 (Vibrio cholerae) (protein) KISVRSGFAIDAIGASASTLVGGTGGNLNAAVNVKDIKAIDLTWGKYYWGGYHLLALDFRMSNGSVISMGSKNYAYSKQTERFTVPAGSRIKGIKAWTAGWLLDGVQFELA ?
Reply | -0.281

Ask | Could you tell me which glycan array binding signal (z-score) is on file for SJCP3842 (Schistosoma japonicum) (protein) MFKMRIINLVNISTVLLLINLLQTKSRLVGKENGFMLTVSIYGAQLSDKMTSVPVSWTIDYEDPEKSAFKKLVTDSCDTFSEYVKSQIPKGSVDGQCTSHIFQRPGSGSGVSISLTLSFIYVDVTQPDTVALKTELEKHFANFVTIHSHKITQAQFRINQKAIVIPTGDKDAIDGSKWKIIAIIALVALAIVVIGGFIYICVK ?
Reply | -0.28

New cases:
Ask | Could you tell me which glycan array binding signal (z-score) is on file for Epa13 (Candida glabrata) (protein) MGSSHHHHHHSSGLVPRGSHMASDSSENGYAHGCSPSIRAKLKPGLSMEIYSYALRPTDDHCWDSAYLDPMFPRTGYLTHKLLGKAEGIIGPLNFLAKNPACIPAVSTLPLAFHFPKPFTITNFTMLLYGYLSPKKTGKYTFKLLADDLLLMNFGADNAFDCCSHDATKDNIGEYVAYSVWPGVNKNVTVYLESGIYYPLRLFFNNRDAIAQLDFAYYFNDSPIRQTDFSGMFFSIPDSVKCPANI ?
Reply | 0.04
